Reported log p values follow for various molecules
Assay: logP by LC-MS, method [b], acidic range pH 2.7
Assay type: physicochemical
Conditions: pH 2.7

# example entries with known answers
MOLECULE	RESULT
CC(=O)c1cc(Nc2ncc(Br)c(NC3CCC3)n2)ccc1Cl	2.95[b]
COc1cc(Nc2ncc(Br)c(NC3CCC3)n2)cc(OC)c1	2.12[b]

Now let's try a different one.
Entry under review: O=C(Nc1ccc(Nc2ncc(Cl)c(NC3CCC3)n2)cc1)C(F)(F)F . Reported log p?
2.09[b]

----------
Assay: logP by LC-MS, method [b], acidic range pH 2.7
Format: physicochemical
Conditions: pH 2.7
REPORTED ENDPOINT: log p

COMPOUND	log p
CC(=O)N(C)c1ccc(Nc2ncc(Br)c(NC3CCC3)n2)cc1 [Compound 94]	1.73[b]
CC(C)(CCl)C(=O)Nc1ccc(Nc2ncc(Br)c(NC3CCC3)n2)cc1 [Compound 165]	2.16[b]

Entry under review: CSc1cccc(Nc2ncc(Cl)c(NC3CCC3)n2)c1 [Compound 128] . Reported log p?
2.46[b]

Entry under review: COc1cc(Nc2ncc(Cl)c(NC3CCC3)n2)ccc1NC(C)=O [Compound 108] . Reported log p?
1.55[b]

Entry under review: Brc1cnc(Nc2ccc3[nH]ccc3c2)nc1NC1CCC1 [Compound 1] . Reported log p?
1.59[b]

Entry under review: Cc1cc(O)ccc1Nc1ncc(Br)c(NC2CCC2)n1 [compound 198] . Reported log p?
1.47[b]

Entry under review: CC(=O)CCc1cccc(Nc2ncc(Br)c(NC3CCC3)n2)c1 [Compound 253] . Reported log p?
2.04[b]

Entry under review: Fc1ccc(Nc2ncc(Br)c(NC3CCC3)n2)cc1 [Compound 49] . Reported log p?
2.33[b]

Entry under review: Fc1cc(F)cc(Nc2ncc(Br)c(NC3CCC3)n2)c1 [compound 144] . Reported log p?
3.98[b]
